biological target: Elastase from human neutrophils (Homo sapiens); assay: Enzymatic assay, elastase; settings: read-out: Elastase IC50
Sequence (P08246 30-267): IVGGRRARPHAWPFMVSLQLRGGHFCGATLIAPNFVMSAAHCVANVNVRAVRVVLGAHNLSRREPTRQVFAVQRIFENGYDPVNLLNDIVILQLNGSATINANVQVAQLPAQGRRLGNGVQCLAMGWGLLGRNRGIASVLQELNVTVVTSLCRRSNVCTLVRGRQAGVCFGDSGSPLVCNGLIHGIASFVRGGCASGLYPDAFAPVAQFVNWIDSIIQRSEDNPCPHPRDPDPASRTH
pIC50: −log10 of the molar value. Where a SMILES comes first, the peptide text is derived from it.
parameter: pIC50

CCCC[C@@H]1NC(=O)[C@H]([C@@H](C)O)NC(=O)[C@@H]2CSSC[C@H](NC(=O)[C@H]([C@@H](C)CC)NC(=O)[C@@H]3CCCN3C(=O)[C@@H]3CCCN3C(=O)[C@H](CC(=O)O)NC(=O)[C@H](CO)NC1=O)C(=O)N[C@@H](CCCNC(=N)N)C(=O)N1CCC[C@@H]1C(=O)N1CCC[C@H]1C(=O)N[C@@H]([C@@H](C)CC)C(=O)N2 [Ex. 59] (HELM PEPTIDE1{I.C.T.[Nle].S.D.P.P.I.C.R.[dP].P}$PEPTIDE1,PEPTIDE1,2:R3-10:R3|PEPTIDE1,PEPTIDE1,1:R1-13:R2$$$V2.0) ... < 4.00
CCCC[C@@H]1NC(=O)[C@@H]2CCCN2C(=O)[C@@H]2CCCN2C(=O)[C@H](CC(=O)O)NC(=O)[C@H](CO)NC(=O)[C@H](CCCCN)NC(=O)[C@H]([C@@H](C)O)NC(=O)[C@@H]2CSSC[C@H](NC1=O)C(=O)N[C@@H](CCCNC(=N)N)C(=O)N1CCC[C@@H]1C(=O)N1CCC[C@H]1C(=O)N[C@@H]([C@@H](C)CC)C(=O)N2 [Ex. 57] (HELM PEPTIDE1{I.C.T.K.S.D.P.P.[Nle].C.R.[dP].P}$PEPTIDE1,PEPTIDE1,2:R3-10:R3|PEPTIDE1,PEPTIDE1,1:R1-13:R2$$$V2.0) ... < 4.00

API: the following record is the query input.
## Task Return pIC50 (reported value) for this compound: CC[C@H](C)[C@@H]1NC(=O)[C@H](C)NC(=O)[C@@H]2CCCN2C(=O)[C@H](CC(=O)O)NC(=O)[C@H](CO)NC(=O)[C@H](CCCCN)NC(=O)[C@H]([C@@H](C)O)NC(=O)[C@@H]2CSSC[C@H](NC1=O)C(=O)N[C@@H](CCCNC(=N)N)C(=O)N1CCC[C@@H]1C(=O)N1CCC[C@H]1C(=O)N[C@@H]([C@@H](C)CC)C(=O)N2 [Ex. 52] (HELM PEPTIDE1{I.C.T.K.S.D.P.A.I.C.R.[dP].P}$PEPTIDE1,PEPTIDE1,2:R3-10:R3|PEPTIDE1,PEPTIDE1,1:R1-13:R2$$$V2.0)
## Result < 4.00
